These measurements were taken from the supplement of paper PMC4858399.

# Test system: Caenorhabditis elegans N2
# experiment: mean nematode size ln(EXT) after 48 h, plate-adjusted (DMSO control set to 6) (ln(EXT), control-adjusted); higher = larger nematodes / less growth inhibition
# run.conditions: 5 µM; exposure time 48 h
property.measured: mean nematode size ln(EXT) (ln)
// return just the number, without any unit appended

Please review the entries below; each comes with its answer.
compound	system.name	property.measured	val
Cc1c(F)c(F)c(COC(=O)[C@@H]2[C@H](/C=C(\Cl)C(F)(F)F)C2(C)C)c(F)c1F (racemic)	Caenorhabditis elegans N2	mean nematode size ln(EXT) (ln)	5.71
Cc1ccccc1CO[C@@H]1C[C@@]2(C(C)C)CCC1(C)O2	Caenorhabditis elegans N2	mean nematode size ln(EXT) (ln)	6
Cc1cc(Cl)ccc1OCC(=O)O	Caenorhabditis elegans N2	mean nematode size ln(EXT) (ln)	6.18
N#C[C@@H]1CC(F)(F)CN1C(=O)CNC1CC2CCC(C1)N2c1ncccn1 (some centres undefined)	Caenorhabditis elegans N2	mean nematode size ln(EXT) (ln)	5.85
CCOP(=O)(NC(C)C)Oc1ccc(SC)c(C)c1 (centres undefined)	Caenorhabditis elegans N2	mean nematode size ln(EXT) (ln)	5.32
CCCCCCc1ccc(O)cc1O	Caenorhabditis elegans N2	mean nematode size ln(EXT) (ln)	5.83
N#Cc1nn(-c2c(Cl)cc(C(F)(F)F)cc2Cl)c(N)c1[S+]([O-])C(F)(F)F (centres undefined)	Caenorhabditis elegans N2	mean nematode size ln(EXT) (ln)	5.92
CC/C(=C(/CC)c1ccc(O)cc1)c1ccc(O)cc1	Caenorhabditis elegans N2	mean nematode size ln(EXT) (ln)	5.97

Now for a further compound.
So, CCc1ccc(C(=O)NN(C(=O)c2cc(C)cc(C)c2)C(C)(C)C)cc1 [Tebufenozide] ? Its mean nematode size ln(EXT) (ln) was 6.28
